# Measured On: PI3K delta (Homo sapiens, UniProt O00329)
# Construct: for the full-length p110-d subunit are generated and fused by overlapping PCR; His tag (C); Tn5 (Trichoplusia ni) or TiniPro insect cells
# Sequence (O00329 with tags, fused parts or gaps limits assumed): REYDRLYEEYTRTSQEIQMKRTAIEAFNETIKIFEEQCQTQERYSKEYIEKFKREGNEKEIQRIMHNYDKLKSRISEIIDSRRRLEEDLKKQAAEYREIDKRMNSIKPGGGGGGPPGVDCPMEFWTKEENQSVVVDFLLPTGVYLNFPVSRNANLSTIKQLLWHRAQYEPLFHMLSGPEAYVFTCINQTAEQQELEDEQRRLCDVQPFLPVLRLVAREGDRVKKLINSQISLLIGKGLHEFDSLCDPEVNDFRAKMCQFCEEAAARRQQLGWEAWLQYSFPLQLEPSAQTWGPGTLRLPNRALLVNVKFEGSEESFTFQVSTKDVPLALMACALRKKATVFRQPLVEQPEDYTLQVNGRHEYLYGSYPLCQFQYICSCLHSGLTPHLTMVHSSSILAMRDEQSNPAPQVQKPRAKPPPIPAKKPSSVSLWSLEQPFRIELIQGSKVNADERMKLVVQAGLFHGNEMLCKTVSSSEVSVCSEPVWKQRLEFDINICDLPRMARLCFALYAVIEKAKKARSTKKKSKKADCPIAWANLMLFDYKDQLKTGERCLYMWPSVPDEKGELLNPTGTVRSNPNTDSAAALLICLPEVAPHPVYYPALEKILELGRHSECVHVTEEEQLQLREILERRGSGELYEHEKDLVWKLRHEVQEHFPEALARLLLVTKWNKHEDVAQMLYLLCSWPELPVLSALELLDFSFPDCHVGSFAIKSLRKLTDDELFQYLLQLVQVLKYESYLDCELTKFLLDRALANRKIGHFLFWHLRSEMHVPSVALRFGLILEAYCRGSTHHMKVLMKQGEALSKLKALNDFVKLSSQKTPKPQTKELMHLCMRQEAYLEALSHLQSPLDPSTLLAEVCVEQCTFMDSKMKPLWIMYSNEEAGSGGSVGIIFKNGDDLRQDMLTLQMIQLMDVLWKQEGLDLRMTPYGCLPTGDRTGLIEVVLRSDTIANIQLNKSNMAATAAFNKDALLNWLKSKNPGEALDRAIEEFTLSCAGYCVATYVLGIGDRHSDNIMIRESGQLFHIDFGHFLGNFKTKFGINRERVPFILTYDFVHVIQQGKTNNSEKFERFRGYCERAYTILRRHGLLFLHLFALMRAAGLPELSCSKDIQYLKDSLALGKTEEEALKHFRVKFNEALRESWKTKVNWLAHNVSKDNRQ
# Test Summary: PI3 kinase assay (Kinase-Glo luminescence), PI3K delta
# Condition Context: Enzymatic Data; read-out: PI3K delta IC50 [umol]
# Description: In a more preferred assay, the kinase reaction is performed in a final volume of 10 μL per well of a low volume non binding CORNING, 384 well black plate (Cat. No. #3676). The final concentrations of ATP and phosphatidyl inositol (PI) in the assay are 1 μM and 10 μg/mL respectively. […] […] is determined by a four parameter curve fitting routine that comes aloneg with “excel fit”. […] Alternatively, IC50 values are calculated using idbsXLfit model 204, which is a 4 parameter logistic model. […]
pIC50: −log10 of the molar value.
Mark Y for reported pIC50 of 7 or greater; mark N for anything smaller.

Example cases with answers are listed next.
Hi, just wondering whether Nc1ncc(-c2ccc3ncc(-c4cnc5c(c4)ncn5CCN4CCOCC4)n3n2)cc1C(F)(F)F [Example 143] shows pIC50 of 7 or higher.
Y

Hi, just wondering whether CC(C)(C)OC(=O)NCCCOc1ccc(-c2ccc3ncc(-c4cnc(N)c(C(F)(F)F)c4)n3n2)cn1 [Example 175] shows pIC50 of 7 or higher.
N

Hi, just wondering whether COc1ccc(-c2ccc3ncc(-c4cnc(N)c(C(F)(F)F)c4)n3n2)cc1 [Example 46] shows pIC50 of 7 or higher.
N

Continuing:
Hi, just wondering whether COC(=O)NCCCOc1ccc(-c2ccc3ncc(-c4cnc(N)c(C(F)(F)F)c4)n3n2)cc1OC [Example 50] shows pIC50 of 7 or higher.
N
